These entries and their values trace back to paper PMC2634962.

# Assay System: PfODC (bifunctional P. falciparum AdoMetDC/ODC) (Plasmodium falciparum, UniProt Q8IJ77)
# Construct: gene PF3D7_1033100; recombinant bifunctional P. falciparum AdoMetDC/ODC, strep tag
# Sequence (Q8IJ77 1-72): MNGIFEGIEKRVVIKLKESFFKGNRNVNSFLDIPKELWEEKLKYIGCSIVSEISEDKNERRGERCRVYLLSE
# Sequence (Q8IJ77 73-1434): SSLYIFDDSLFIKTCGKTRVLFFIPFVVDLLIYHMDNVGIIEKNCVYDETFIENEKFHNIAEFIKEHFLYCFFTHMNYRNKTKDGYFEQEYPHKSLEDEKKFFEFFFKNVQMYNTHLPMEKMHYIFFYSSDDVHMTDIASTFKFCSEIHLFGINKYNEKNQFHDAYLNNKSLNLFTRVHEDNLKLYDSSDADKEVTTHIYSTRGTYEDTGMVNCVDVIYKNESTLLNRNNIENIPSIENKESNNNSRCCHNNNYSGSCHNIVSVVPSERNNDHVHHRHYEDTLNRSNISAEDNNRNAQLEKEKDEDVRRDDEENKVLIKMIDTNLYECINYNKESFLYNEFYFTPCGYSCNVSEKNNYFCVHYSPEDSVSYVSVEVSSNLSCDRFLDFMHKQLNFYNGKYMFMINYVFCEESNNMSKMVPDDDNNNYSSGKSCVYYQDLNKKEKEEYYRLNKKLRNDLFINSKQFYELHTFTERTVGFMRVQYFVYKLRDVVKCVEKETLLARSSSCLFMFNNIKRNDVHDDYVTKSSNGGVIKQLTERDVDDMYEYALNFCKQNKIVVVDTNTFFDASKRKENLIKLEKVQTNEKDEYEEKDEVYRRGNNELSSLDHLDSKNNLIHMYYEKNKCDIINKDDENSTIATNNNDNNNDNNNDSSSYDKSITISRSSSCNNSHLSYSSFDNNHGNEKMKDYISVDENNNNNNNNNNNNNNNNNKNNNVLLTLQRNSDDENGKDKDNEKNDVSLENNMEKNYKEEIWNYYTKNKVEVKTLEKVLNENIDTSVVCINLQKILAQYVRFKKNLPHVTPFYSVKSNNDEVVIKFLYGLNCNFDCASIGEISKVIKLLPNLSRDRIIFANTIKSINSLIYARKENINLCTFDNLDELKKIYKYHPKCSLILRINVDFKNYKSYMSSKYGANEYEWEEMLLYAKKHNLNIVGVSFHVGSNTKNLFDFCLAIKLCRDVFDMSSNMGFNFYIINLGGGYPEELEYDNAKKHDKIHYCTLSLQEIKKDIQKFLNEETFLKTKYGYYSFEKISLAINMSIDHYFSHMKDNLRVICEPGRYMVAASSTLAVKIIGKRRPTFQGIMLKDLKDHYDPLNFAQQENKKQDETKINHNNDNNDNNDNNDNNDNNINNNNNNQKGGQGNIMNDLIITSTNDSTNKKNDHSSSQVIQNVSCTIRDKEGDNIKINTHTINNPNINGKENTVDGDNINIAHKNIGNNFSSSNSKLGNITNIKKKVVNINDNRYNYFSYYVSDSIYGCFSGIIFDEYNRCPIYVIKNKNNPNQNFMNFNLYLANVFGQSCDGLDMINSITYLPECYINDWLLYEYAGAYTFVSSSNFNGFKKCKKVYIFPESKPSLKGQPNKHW
# Measurement Notes: […]CO2 release from […]-L-ornithine by recombinant PfODC/AdoMetDC with […] PLP
# Assay type: biochemical
# Condition Summary: read-out: Inhibition of PfODC activity IC50-value [μM] ^a)
Experimental Readout: IC50 (µM)

{"columns": ["Compound", "IC50 (µM)"],
 "data": [
  ["COC(=O)C(Cc1c[nH]c2ccccc12)NCc1c(COP(=O)(O)O)cnc(C)c1O (centres unmarked)", 64],
  ["COC(=O)C(Cc1c[nH]cn1)NCc1c(COP(=O)(O)O)cnc(C)c1O (centres unmarked)", 58]
]}
